Below, each of the molecules is paired with its reported pIC50 value.
# TEST_SYSTEM: Der p 1 (Dermatophagoides pteronyssinus (European house dust mite))
# Sequence (P08176 99-320): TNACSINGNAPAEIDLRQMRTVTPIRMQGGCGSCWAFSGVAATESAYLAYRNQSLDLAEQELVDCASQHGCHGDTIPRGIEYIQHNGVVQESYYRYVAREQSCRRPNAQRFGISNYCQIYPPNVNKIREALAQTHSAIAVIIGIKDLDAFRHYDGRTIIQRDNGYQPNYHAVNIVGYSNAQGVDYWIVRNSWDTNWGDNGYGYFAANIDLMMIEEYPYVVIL
# PROCEDURE_DETAILS: Der p 1 enzyme activity assay (FRET fluorogenic substrate)
# Assay type: biochemical
# MEASUREMENT_SETUP: threshold stated in text; read-out: Der p 1 IC50
pIC50: −log10 of the molar value.

{"MOLECULE": "CC(C)[C@H](NC(=O)[C@H](C)NC(=O)[C@@H](NC(=O)c1ccc(OCc2nccn2C)cc1)C(C)(C)C)C(=O)C(=O)NC1CCCCC1", "TEST_SYSTEM": "Der p 1 (Dermatophagoides pteronyssinus (European house dust mite))", "pIC50": "> 6.70"}
{"MOLECULE": "COc1ccc(CNC(=O)C(=O)[C@@H](NC(=O)[C@H](C)NC(=O)[C@H](Cc2ccccc2)NC(=O)c2ccccc2)C(C)C)cc1", "TEST_SYSTEM": "Der p 1 (Dermatophagoides pteronyssinus (European house dust mite))", "pIC50": "> 7.70"}
{"MOLECULE": "CC(C)[C@H](NC(=O)[C@H](C)NC(=O)[C@@H](NC(=O)c1ccccc1)C(C)(C)C)C(=O)C(=O)NCc1ccc(S(N)(=O)=O)cc1", "TEST_SYSTEM": "Der p 1 (Dermatophagoides pteronyssinus (European house dust mite))", "pIC50": "> 7.70"}
{"MOLECULE": "CCC[C@H](NC(=O)[C@H](Cc1ccccc1)NC(=O)c1ccccc1)C(=O)N[C@H](C(=O)C(=O)NC1CCCCC1)C(C)C", "TEST_SYSTEM": "Der p 1 (Dermatophagoides pteronyssinus (European house dust mite))", "pIC50": "> 6.70"}
{"MOLECULE": "CNC(=O)c1ccc(CNC(=O)C(=O)[C@@H](NC(=O)[C@H](C)NC(=O)[C@@H](N2Cc3ccccc3C2=O)C(C)(C)C)C(C)C)cc1", "TEST_SYSTEM": "Der p 1 (Dermatophagoides pteronyssinus (European house dust mite))", "pIC50": "> 7.70"}
{"MOLECULE": "CC(C)[C@H](NC(=O)[C@H](C)NC(=O)[C@@H](N1Cc2ccccc2C1=O)C(C)(C)C)C(=O)C(=O)NCc1ccccc1", "TEST_SYSTEM": "Der p 1 (Dermatophagoides pteronyssinus (European house dust mite))", "pIC50": "> 7.70"}
{"MOLECULE": "CC(C)[C@H](NC(=O)[C@H](C)NC(=O)C(C)(C)NC(=O)c1ccccc1)C(=O)C(=O)NC1CCCCC1", "TEST_SYSTEM": "Der p 1 (Dermatophagoides pteronyssinus (European house dust mite))", "pIC50": "> 5.70"}
{"MOLECULE": "CC(C)[C@H](NC(=O)[C@H](C)NC(=O)[C@@H](NC(=O)c1cccc(Cl)c1)C(C)(C)C)C(=O)C(=O)NCc1ccccc1", "TEST_SYSTEM": "Der p 1 (Dermatophagoides pteronyssinus (European house dust mite))", "pIC50": "> 7.70"}
{"MOLECULE": "CC(C)[C@H](NC(=O)[C@H](C)NC(=O)[C@@H](NC(=O)c1ccnc2ccccc12)C(C)(C)C)C(=O)C(=O)NCc1ccc(C(N)=O)cc1", "TEST_SYSTEM": "Der p 1 (Dermatophagoides pteronyssinus (European house dust mite))", "pIC50": "> 7.70"}
{"MOLECULE": "CC(C)[C@H](NC(=O)[C@H](C)NC(=O)[C@@H](Cc1ccccc1)NC(=O)c1ccncc1)C(=O)C(=O)NCc1ccccc1", "TEST_SYSTEM": "Der p 1 (Dermatophagoides pteronyssinus (European house dust mite))", "pIC50": "> 7.70"}
{"MOLECULE": "CC(C)[C@H](NC(=O)[C@H](C)NC(=O)[C@@H](NC(=O)c1ccccc1)C(C)(C)C)C(=O)C(=O)NCC(=O)N1CCCCC1", "TEST_SYSTEM": "Der p 1 (Dermatophagoides pteronyssinus (European house dust mite))", "pIC50": "> 7.70"}
{"MOLECULE": "CC(C)C[C@H](NC(=O)[C@H](C)NC(=O)[C@H](Cc1ccccc1)NC(=O)c1ccccc1)C(=O)C(=O)NCc1ccccc1", "TEST_SYSTEM": "Der p 1 (Dermatophagoides pteronyssinus (European house dust mite))", "pIC50": "> 7.70"}
{"MOLECULE": "CC(C)[C@H](NC(=O)[C@H](C)NC(=O)[C@@H](NC(=O)c1ccccc1)C(C)(C)C)C(=O)C(=O)NCC(=O)N1CCC(N(C)C)C1 (stereo partly shown)", "TEST_SYSTEM": "Der p 1 (Dermatophagoides pteronyssinus (European house dust mite))", "pIC50": "> 7.70"}
